Tested on: TOV-21G
Experiment: cell viability relative to DMSO control (MTS) (fraction of DMSO control); higher = more viable cells / less growth inhibition
Settings: 10 µM; 48 h
PARAMETER_MEASURED: cell viability

The following compounds have reported results that may help.
CC[C@@]1(O)C(=O)OCc2c1cc1n(c2=O)Cc2cc3ccccc3nc2-1; 0.267
Cc1sc2c(c1C)C(c1ccc(Cl)cc1)=N[C@@H](CC(=O)OC(C)(C)C)c1nnc(C)n1-2; 0.305
CN(N=O)c1cc(O)ccc1O; 1.02
N.N.[Cl][Pt][Cl] [Cisplatin]; 1.09
O[C@H]1[C@H]2[C@H](O)CCCN2C[C@H]1O; 0.689

The following compounds each have a reported value; give each one's cell viability.
1. C[C@@H]1O[C@@H](O[C@H]2C[C@@H](O)[C@]3(CO)[C@H]4[C@H](O)C[C@]5(C)[C@@H](C6=CC(=O)OC6)CC[C@]5(O)[C@@H]4CC[C@]3(O)C2)[C@H](O)[C@H](O)[C@H]1O
2. N[C@@H]1C[C@H]1c1cc(F)cc(F)c1OCc1ccccc1
3. CN1C(=O)[C@]2(Cc3cn([C@]45C[C@@]67SS[C@@](CO)(C(=O)N6[C@H]4Nc4ccccc45)N(C)C7=O)c4ccccc34)SS[C@@]1(CO)C(=O)N2C

Result:
1: 0.279; 2: 1.04; 3: 0.254

----------
Test system: ES2
Experiment: cell viability relative to DMSO control (MTS) (fraction of DMSO control); higher = more viable cells / less growth inhibition
Conditions: 10 µM; 48 h
What cell viability was measured for each of the following?
One number for each entry.

CC(C)(C)c1cc(C=C(C#N)C#N)cc(Br)c1O; 0.94
C[C@H](CCC(=O)O)C[C@H](C)C[C@H](C)C(=O)/C=C(\O)[C@H](C)C[C@H](C)C/C=C/[C@@H](C)[C@@H](O)[C@@H](C)[C@@H](O)C[C@@H]1CC[C@@](C)([C@H]2CC[C@@](C)([C@@H](C)O)O2)O1; 0.54
CNc1ccc2oc(C[C@H]3O[C@@]4(CC[C@H]3C)O[C@H]([C@H](C)C(=O)c3ccc[nH]3)[C@H](C)C[C@H]4C)nc2c1C(=O)O; 0.425
C=C(C)[C@H]1Cc2c(ccc3c2O[C@@H]2COc4cc(OC)c(OC)cc4[C@@H]2C3=O)O1; 0.491
CC1=C2C[C@H]3[C@@H](CC=C4C[C@@H](O)CC[C@@]43C)[C@@H]2CC[C@]12O[C@@H]1C[C@H](C)CN[C@H]1[C@H]2C; 0.92

Would you kindly look at the next entry?
Measured cell viability, `CN[C@@H]1C[C@H]2O[C@@](C)([C@@H]1OC)n1c3ccccc3c3c4c(c5c6ccccc6n2c5c31)C(=O)NC4` : 0.301

----------
Tested on: TOV-21G
Assay: cell viability relative to DMSO control (MTS) (fraction of DMSO control); higher = more viable cells / less growth inhibition
Details: 10 µM; 48 h
Where a name gives a salt, the structure may show the parent alone.
Note: every record was labeled by where its cell viability sits among bottom end: < 0.5; midrange: ≥ 0.5 and < 1; top end: ≥ 1

CC(=O)N[C@H]1[C@@H](O[C@@H]2O[C@H](CC(O)[C@H]3O[C@@H](n4ccc(=O)[nH]c4=O)[C@H](O)[C@@H]3O)[C@H](O)[C@H](O)[C@H]2NC(=O)/C=C/CC(C)C)O[C@H](CO)[C@@H](N)[C@@H]1O (stereo not given in full); top end

Q: Could you place `C[C@]12CCC(=O)C(O)=C1CC[C@@H]1[C@@H]2CC[C@]2(C)C(=O)CC[C@@H]12` in its proper category? Many thanks.
Result: top end

Q: Hi, small favor: classify `CC1=C2C[C@H]3[C@@H](CC=C4C[C@@H](O)CC[C@@]43C)[C@@H]2CC[C@]12O[C@@H]1C[C@H](C)CN[C@H]1[C@H]2C` by its cell viability when you get a moment.
Result: midrange

Q: Consider N=C(N)NN [Aminoguanidine, HCl] . To which cell viability class does it belong?
Result: bottom end

Q: Please report the category associated with CC(C)(c1ccc(OCC2CO2)cc1)c1ccc(OCC2CO2)cc1 (stereo not given) , nothing else.
Result: top end

Q: Class (by measured cell viability) for CCC1(c2ccc(N)cc2)CCC(=O)NC1=O (stereo not given) [Aminoglutethimide]
Result: midrange

Q: Returns: class label. Input: `CC1=C2C(=O)[C@H]3[C@@H](CC=C4C[C@@H](O)CC[C@@]43C)[C@@H]2CC[C@]12O[C@@H]1C[C@H](C)CN[C@H]1[C@H]2C`
Result: top end

Q: Category lookup for the molecule `C[C@H]1CCC/C=C/[C@@H]2C[C@H](O)C[C@H]2[C@H](O)/C=C/C(=O)O1`
Result: bottom end

Q: For `CO/C1=C\C(C)=C\[C@@H](C)[C@@H](O)[C@@H](C)C/C(C)=C/C=C/[C@H](OC)[C@@H]([C@@H](C)[C@@H](O)[C@H](C)[C@@]2(O)C[C@@H](O)[C@H](C)[C@@H](C(C)C)O2)OC1=O` , which cell viability bin applies?
Result: bottom end

Q: Quick check: band for `C[C@@]1(CO)[C@H](O)CC[C@@]2(C)[C@H]1CC[C@H]1C[C@@H]3C[C@@]12CC[C@]3(O)CO`
Result: midrange

Q: Which category does the recorded cell viability put `CC(C)(C)c1cc(C=C(C#N)C#N)cc(Br)c1O` in?
Result: top end

Q: Given `CC(C)[C@@H]1NC(=O)[C@H](C)OC(=O)[C@@H](C(C)C)NC(=O)[C@@H](C(C)C)OC(=O)[C@H](C(C)C)NC(=O)[C@H](C)OC(=O)[C@@H](C(C)C)NC(=O)[C@@H](C(C)C)OC(=O)[C@H](C(C)C)NC(=O)[C@H](C)OC(=O)[C@@H](C(C)C)NC(=O)[C@@H](C(C)C)OC1=O` , name the class its cell viability places it in.
Result: bottom end

Q: Using the reported cell viability, which band applies to `CN1C(=O)CN=C(c2ccc(Cl)cc2)c2cc(Cl)ccc21` ?
Result: midrange

----------
Tested on: ES2
Experiment: cell viability relative to DMSO control (MTS) (fraction of DMSO control); higher = more viable cells / less growth inhibition
Conditions: 10 µM; 48 h
For each of the compounds below, state its cell viability.
Answers are plain numbers.

Some compounds with known cell viability results, for comparison:
CCC1(c2ccc(N)cc2)CCC(=O)NC1=O (stereo not drawn) [Aminoglutethimide]; 1.08
CC[C@@]1(O)C(=O)OCc2c1cc1n(c2=O)Cc2cc3ccccc3nc2-1 [Camptothecin]; 0.527
CC[C@@]1([C@@H]2O[C@@H]([C@H]3O[C@@](O)(CO)[C@H](C)C[C@@H]3C)C[C@@H]2C)CC[C@H]([C@]2(C)CC[C@]3(C[C@H](O)[C@@H](C)[C@@H]([C@@H](C)[C@@H](OC)[C@H](C)C(=O)O)O3)O2)O1 [Monensin]; 0.419
CC(C)(c1ccc(OCC2CO2)cc1)c1ccc(OCC2CO2)cc1 (stereo not drawn); 0.975
CO[C@@H]1C[C@@H](C[C@H]2CC[C@H](C)[C@H]([C@@H](C)C(=O)O)O2)O[C@]2(O[C@](C)([C@H]3CC[C@@](C)([C@@H]4O[C@@H]([C@H]5O[C@@](O)(CO)[C@H](C)C[C@@H]5C)C[C@@H]4C)O3)C[C@H]2C)[C@@H]1C [Nigericin]; 0.437

Respectfully, I request cell viability for each entry included below.
1. C#CCN(C)C(C)Cc1ccccc1 (stereo not drawn) [Deprenyl]
2. CC1=C2C(=O)[C@H]3[C@@H](CC=C4C[C@@H](O)CC[C@@]43C)[C@@H]2CC[C@]12O[C@@H]1C[C@H](C)CN[C@H]1[C@H]2C [Jervine]
3. C[C@@]12C(=O)OC(=O)[C@]1(C)[C@H]1CC[C@@H]2O1 [Cantharidin]
4. CC(=O)N[C@H]1[C@@H](O[C@@H]2O[C@H](CC(O)[C@H]3O[C@@H](n4ccc(=O)[nH]c4=O)[C@H](O)[C@@H]3O)[C@H](O)[C@H](O)[C@H]2NC(=O)/C=C/CC(C)C)O[C@H](CO)[C@@H](N)[C@@H]1O (stereo partly drawn) [Tunicamycin]
5. COc1ccc(C[C@H]2NC[C@H](O)[C@H]2OC(C)=O)cc1 [anisomycin]
6. C=C1[C@@H](C)[C@H]2[C@H](Cc3ccccc3)NC(=O)[C@]23[C@H](OC(C)=O)/C=C/[C@@](C)(O)C(=O)[C@@H](C)C/C=C/[C@H]3[C@@H]1O [Cytochalasin D]
7. CC[C@H]1/C=C/C=C/C[C@@H](C)[C@H](O)[C@@](C)(O)C(=O)[C@@H](C)[C@H](O)[C@@H](C)C(=O)[C@@H](C)[C@H](O)[C@@H](C)/C=C/C(=O)O[C@@H]2[C@H](C)[C@H](CC1)O[C@]1(CC[C@H](C)[C@H](C[C@@H](C)O)O1)[C@H]2C [Oligomycin]
8. NC(=S)N/N=C\c1coc2ccccc2c1=O.[Cl][Cu][Cl] [Akt Inhibitor XI]

Result:
1. 1.12
2. 1.04
3. 0.495
4. 1.19
5. 0.394
6. 0.498
7. 0.67
8. 1.23
